Target: T1, RSV postfusion F (postF), subtype B (respiratory syncytial virus subtype B)
T1 construct: also called Postfusion subtype B
T1 sequence (P13843 26-109, chain 1 of 2): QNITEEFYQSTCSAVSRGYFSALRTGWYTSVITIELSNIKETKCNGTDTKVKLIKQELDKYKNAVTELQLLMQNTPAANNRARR
T1 sequence (P13843 147-513, chain 2 of 2): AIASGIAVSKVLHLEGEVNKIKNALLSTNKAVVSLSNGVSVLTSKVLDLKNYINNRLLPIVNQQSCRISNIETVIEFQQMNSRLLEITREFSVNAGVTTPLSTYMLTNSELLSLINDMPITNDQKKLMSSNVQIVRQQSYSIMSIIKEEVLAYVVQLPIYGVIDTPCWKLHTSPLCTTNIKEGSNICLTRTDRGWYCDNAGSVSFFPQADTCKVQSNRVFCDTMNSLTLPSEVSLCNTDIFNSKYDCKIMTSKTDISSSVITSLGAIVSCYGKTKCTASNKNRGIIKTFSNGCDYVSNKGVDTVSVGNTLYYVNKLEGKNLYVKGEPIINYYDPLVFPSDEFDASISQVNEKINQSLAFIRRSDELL
Experiment: BLI, IgG
pKd: −log10 of the molar value.
# binarize pKd: threshold 9 inclusive, high side Criterion met, low side Criterion not met

Answer whether pKd of ADI-19511 (antibody, V domains shown, full-length IgG) VH: QITLKESGPTLVKPTQTLTLTCTFSGFSLSTSGVGVGWIRQPPGKALEWLALIYWDDDKRYSPSLKSRLTITKDTSKNQVVLTMTNMDPVDTATYYCAHSVYYDFWSGYYVPNYFDYWGQGTLVTVSS VL: DIQMTQSPSSLSASVGDRVTITCRASQGIRNDLGWYQQKPGKAPKRLIYAASSLQSGVPSRFSGSGSGTEFTLTISSLQPEDFATYYCLQHNSYPLTFGGGTKVEIK is greater than or equal to 9.
Criterion not met

Answer whether pKd of ADI-14361 (antibody, V domains shown, full-length IgG; also called Ab 29) VH: EVQLLESGGGFVQPGGSLRLSCAASGFTFSSYAVNWVRQAPGKGLEWVSLISGSGRTDYTDSVKGRFTISRDNAKNTLFLQMNSLRVEDTAVYYCAKSWGSSGYGYLDYWGQGTLVTVSS VL: QSGLTQPPSVSGAPGQRVTISCTGSSSNIGPGTDVHWYQHFPGTAPKLLIFGNSNRPSGVPDRFSGSKSGTSASLAITGLQAEDEAYYYCQSYDRTLSASVFGGGTKLTVL is greater than or equal to 9.
Criterion met

Answer whether pKd of ADI-25547 (antibody, V domains shown, full-length IgG) VH: EVQLLESGGGLIQPGGSLRLSCAASGFTVSSNYMSWVRQAPGKGLEWVSVIYSGGSTYYADSVKGRFTISRDNSKNTLYLQMNSLRAEDTAVYYCARGGIADAFDIWGQGTMVTVSS VL: ETTLTQSPSSVSASVGDRVTITCRASQGISSWLAWYQQKPGKAPKLLIYAASSLQSGVPSRFSGSGSGTDFTLTISSLQPEDFATYYCQQANSFPRTFGQGTKLEIK is greater than or equal to 9.
Criterion not met

Answer whether pKd of ADI-14356 (antibody, V domains shown, full-length IgG; also called Ab 24) VH: QVQLQESGAGLLKPSETLSLTCAVYGGSFSGYYWSWIRQPPGKGLEWIGEINHSGSTNYNPSLKSRVTISVDTSKNQFSLKLSSVTAADTAVYYCARDQRIVVVGAATEPYYYYYGMDVWGQGTTVTVSS VL: QPVLTQPPSVSVSPGQTARITCSGDALPKQYAYWYQQKPGQAPVLVIYKDSERPSGIPERFSGSSSGTTVTLTISGVQAEDEADYYCQSADSSGTYRVFGGGTKLTVL is greater than or equal to 9.
Criterion not met

Answer whether pKd of ADI-14383 (antibody, V domains shown, full-length IgG; also called Ab 51) VH: QITLKESGPTLVKPTQTLTLTCTFSGFSLSTSGVGVGWIRQPPGKALEWLALIYWDEDKRYSPSLKTRLTITKDTSRNQVKLTMTNMDPVDTATYYCAHQYYDILTGYPSPGAFDIWGQGTTVTVSS VL: QPVLTQPASVSGSPGQSITISCTGTSSDVVSYNLVSWFQQHPGKAPKLMIYEVTRRPSGVSNRFSGSKSGNTASLTISGLQAEDEADYYCCAYTGTPVVFGGGTKLTVL is greater than or equal to 9.
Criterion met

Answer whether pKd of ADI-19480 (antibody, V domains shown, full-length IgG) VH: EVQLVESGGGLVKPGGSLRLSCAASGFTFSAYSMNWVRQAPGKGLEWVSSISSTTNYISYADSVKGRFTISRDNAKNSLYLQMNSLRAEDTAVYYCARDPKYYGLGTYYKDDYWGQGTLVTVSS VL: NFMLTQPHSVSESPGKTVTISCTRSGGSIASNYVQWYQQRPGSSPTTVIYEDNQRPSGVPDRFSGSIDSSFNSASLTVSGLKTEDEADYYCQSFDNNNRWVFGGGTKLTVL is greater than or equal to 9.
Criterion met

Answer whether pKd of ADI-19503 (antibody, V domains shown, full-length IgG) VH: QVQLVQSGAEVKKPGASVKVSCKASGYTFTSYYMHWVRQAPGQGLEWMGIINPSGGSTSYAQKFQGRVTMTRDTSTSTVYMELSSLRSEDTAVYYCARDSLVNCSGGSCPGGPDYWGQGTLVTVSS VL: SYVLTQPPSVSVSPGQTARITCSGDALPKKYAYWYQQKSGQAPVLVIYEDSKRPSGIPERFSGSSSGTMATLTISGAQVEDEADYYCYSTDSSGNHRVFGGGTKLTVL is greater than or equal to 9.
Criterion not met

Answer whether pKd of ADI-14372 (antibody, V domains shown, full-length IgG; also called Ab 40) VH: QVQLLESGGGLVQPGGSLRLSCAASGFTFSNYAMGWVRQAPGQGLEWVSRISATGGSTHYADSVRGRFTISRDNSKNTLYLQMNSLKAEDTAVYYCAKDRGYSRNLTPDYWGQGTLVTVSS VL: ETTLTQSPSSLSASVGDRVTITCRASQGITNDLGWYQKKPGKAPKLLIYVASSLQSGVPSRFSGSGSGTDFTLTISSLQPEDFATYYCLQDYNYPITFGQGTKVDIK is greater than or equal to 9.
Criterion not met

Answer whether pKd of ADI-19486 (antibody, V domains shown, full-length IgG) VH: QVQLQESGPGLVKPSETLSLTCSVSGGSLTSYYWSWIRQPPGKGLEWIGYIYYSGSTNYNPSLKSRLTISVDTSKNQFSLKLSSVTAADTAVYYCARVGGRGVINVFDYWGQGTLVTVSS VL: QPVLTQPASVSGSPGQSITISCTGTSSDVGGYNYVSWYQQHPGKAPKLMIYEVSNRPSGVSNRFSGSKSGNTASLTISGLQAEDEADYYCDSYRSNSASVVFGGGTKLTVL is greater than or equal to 9.
Criterion not met
